- Tested on: PC-3
- measurement_description: NCI tumour cell line growth inhibition, 48 h
Active and inactive are the calls of the source. No stated cut-off is given here; in the data, active = GI50 up to about 1.1 µM and inactive = higher.
Field 'call' accepts active, inactive

Record excerpt, results attached:
molecule="COC(=O)C(=O)C(C(=O)OC)C(=O)C(=O)Nc1c(Cl)cc([N+](=O)[O-])cc1Cl (stereo not given)" experimental_target=PC-3 assigned_category=inactive
molecule="CC(=O)N(CN1C(=O)CCC1C(=O)O)c1ccc(C)cc1 (stereo not given)" experimental_target=PC-3 assigned_category=inactive
molecule=O=C(C(=O)N1CCc2ccccc21)c1c[nH]c2ccccc12 experimental_target=PC-3 assigned_category=inactive
molecule=CCCSc1ccc2[nH]c(N3C(=O)/C(=C/c4ccc(O)c(OC)c4)N=C3c3ccccc3)cc2c1 experimental_target=PC-3 assigned_category=inactive
molecule=COC(C/C(=C/CO[Si](C(C)C)(C(C)C)C(C)C)C(=O)N(C(=O)OC(C)(C)C)c1ccccc1I)OC experimental_target=PC-3 assigned_category=inactive
molecule=CCC1(CCSC(=N)N)C(=O)NC(=O)NC1=O experimental_target=PC-3 assigned_category=inactive
molecule=CCCc1nc2c(n1CC)C(=O)c1ccccc1C2=O experimental_target=PC-3 assigned_category=inactive
molecule=Cc1c(CCOC=O)c(=O)[nH]c2nncn12 experimental_target=PC-3 assigned_category=inactive

I would be grateful if you could indicate the recorded call for C(/c1ccco1)=c1/nc(-c2ccccc2)n2c1nc1ccccc12 .
active

I would be grateful if you could indicate the recorded call for C=C1CC2C[C@H](OS(=O)(=O)c3ccc(C)cc3)C(C1)N2C (stereo not given in full) .
inactive

I would be grateful if you could indicate the recorded call for O=C(/C=C/c1ccc(O)c(O)c1)NC(CO)C(=O)O (stereo not given) .
inactive

I would be grateful if you could indicate the recorded call for Nn1c(-c2ccccc2)n[nH]c1=O .
inactive

----------
- Test system: DU-145
- measurement_description: NCI tumour cell line growth inhibition, 48 h
Active and inactive are the calls of the source. No stated cut-off is given here; in the data, active = GI50 up to about 1.1 µM and inactive = higher.
Field 'call' accepts yes for active, no for inactive

Record excerpt, results attached:
compound=C=CCn1c(=O)c2ccccc2[n+]2c(C)c(C(=O)OCC)sc12 experimental_target=DU-145 assigned_category=no
compound="CSc1ncc2c(n1)-c1ccccc1OC2NC1CC1 (stereo unspecified)" experimental_target=DU-145 assigned_category=no

I would be grateful if you could indicate the recorded call for O=C(Nn1c(-c2ccccc2)nc2ccccc2c1=O)c1ccc(Cl)cc1 .
no

I would be grateful if you could indicate the recorded call for CC1(C)OCC(C2OC(C)(C)OC2[C@H]2O[C@@]3(O)[C@H]4[C@H](C=CC[C@@H]42)[C@@H](OCc2ccccc2)[C@H](OCc2ccccc2)[C@H]3OCc2ccccc2)O1 (stereo partly specified) .
no

I would be grateful if you could indicate the recorded call for CCCCCOC(=O)C(=O)Nc1[nH]nnc1C(N)=O .
no

I would be grateful if you could indicate the recorded call for C=C[C@@H]1OC(=O)O[C@H]1CO .
no

I would be grateful if you could indicate the recorded call for O=C1C=C(NCCOCCO)C(=O)c2c(O)ccc(O)c21 .
no

I would be grateful if you could indicate the recorded call for COc1cc2ccccc2oc1=O .
no

----------
- System: UACC-257
- measurement_description: NCI tumour cell line growth inhibition, 48 h
Active and inactive are the calls of the source. Cut-off read from the data, not from the text of the source: active = GI50 up to about 1.1 µM and inactive = higher.
Documented GI50 across a set of compounds

Solved entries:
compound=COc1cccc([C@@H]2C/C(=N\NC(=O)C(=O)N[C@@H](C)c3ccccc3)c3ccccc3N2)c1 result="82 µM (inactive)"
compound=O=C1c2ccccc2C(=O)c2c(O)c(NCCNCCO)cc(O)c21 result="6.59 µM (inactive)"
compound=CC(=O)OCc1cc(OC(C)=O)cnc1COC(C)=O result="> 100 µM (inactive)"
compound="CC12CCC(C(=O)O1)C(C)(C)O2 (stereo unspecified)" result="> 100 µM (inactive)"
compound="COC(=O)C(=O)C(C(=O)C(=O)Nc1ccccc1C(N)=O)c1nc2ccc(Cl)cc2nc1O (stereo unspecified)" result="> 100 µM (inactive)"

Lookup result for CC(C)[C@](O)(C(=O)OCC1=CC[N+]2([O-])CC[C@@H](O)[C@@H]12)[C@H](C)O (stereo partly specified) [INDICINE N-OXIDE] ; measured GI50: > 10000 µM (inactive)

Lookup result for NC(=O)c1nnc2ccc(F)cc2c1N ; measured GI50: > 100 µM (inactive)

Lookup result for CCN(CC)CCCOC(=O)/C=C/c1c(C)[nH]c(=O)[nH]c1=O ; measured GI50: > 625 µM (inactive)

Lookup result for C[Si](C)(C)/C=C/CCC(C=O)(CCCl)c1ccccc1 (stereo unspecified) ; measured GI50: 26.2 µM (inactive)

Lookup result for CN(C)/C=N\c1cccc2c1NSN2 ; measured GI50: > 100 µM (inactive)

Lookup result for CCOCc1cc(=O)c2c(OC)cc3c(c2o1)CCC(C)(C)O3 ; measured GI50: > 100 µM (inactive)
